Biological target: hROMK (hKir1.1) (Homo sapiens, UniProt P48048)
Sequence (P48048 1-391): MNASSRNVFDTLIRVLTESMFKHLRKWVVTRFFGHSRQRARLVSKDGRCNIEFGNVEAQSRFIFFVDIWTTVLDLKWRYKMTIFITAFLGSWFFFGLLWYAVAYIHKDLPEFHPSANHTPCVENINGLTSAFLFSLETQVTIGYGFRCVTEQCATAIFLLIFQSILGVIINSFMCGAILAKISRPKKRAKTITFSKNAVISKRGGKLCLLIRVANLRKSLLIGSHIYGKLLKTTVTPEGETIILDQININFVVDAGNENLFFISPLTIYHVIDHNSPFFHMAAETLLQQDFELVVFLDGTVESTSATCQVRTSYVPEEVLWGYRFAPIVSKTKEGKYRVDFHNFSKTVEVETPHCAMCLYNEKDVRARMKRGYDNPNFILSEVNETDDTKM
Assay: Thallium Flux Assay (ROMK channel functional thallium flux, FLIPR-Tetra)
Conditions: HEK293 cells stably expressing hROMK (hKir1.1); 30 min compound incubation
In this section we review reported IC50 values for a set of molecules.
Write down the numeric answer in nM and omit the unit.

CC1OC(=O)C=C1N1C(=O)C2(CCN(C[C@H](O)c3ccc(-n4cnnn4)nc3)CC2)C[C@@H]1C (single isomer, unassigned) [Example 228] = 20
CO[C@H](CN1CCC2(CC1)C[C@@H](C)N(C1=C(C)C(=O)OC1)C2=O)c1ccc(-n2cnnn2)nc1 = 100
Cc1nc(-n2cnnn2)ccc1[C@H](O)CN1CCC2(CC1)CCN(C1=CC(=O)OC1)C2=O = 50
O=C1C=C(N2C(=O)C3(CCN(C[C@H](O)c4cnc(-n5cnnn5)cn4)CC3)CC2CF)CO1 (single isomer, unassigned) [Example 204] = 300
Cc1nc(-n2cnnn2)cnc1C(O)CN1CCC2(CC1)C[C@H](C)N(C1=CC(=O)OC1)C2=O (mixture of isomers) [Example 168] = 10
CC1=C(N2CCC3(CCN(C[C@H](O)c4ncc(-n5cnnn5)nc4C)CC3)C2=O)COC1=O = 40

Next molecule, please.
Entry C[C@H]1CC2(CCN(C[C@@H](O)c3cnc(-n4cnnn4)cn3)CC2)C(=O)N1C1=CC(=O)OC1 — recorded IC50 = 10
